Attribution: patent US9505749B2

target: 6×HIS-tankyrase1 (1091-1325) (Homo sapiens (Human)); experiment: Tankyrase 1 biochemical assay (AlphaLisa, PARsylation); conditions: 400 nM NAD, 60 minutes at RT; read-out: TNKS1 IC50
property.measured: IC50 (nM)

N#Cc1cc(O[C@H]2CC[C@H](NC(=O)CCCc3nc4ccccc4c(=O)[nH]3)CC2)ccc1Cl
2.33

(1) O=C(CCCc1nc2ccccc2c(=O)[nH]1)N1CCC(n2c(=O)oc3ccccc32)CC1
(2) O=C(CCCc1nc2ccccc2c(=O)[nH]1)N1CCC(c2nnc(-c3ccccc3)s2)CC1
(3) O=C(CCCc1nc2ccccc2c(=O)[nH]1)N1CCC(n2c(=O)[nH]c3cc(F)ccc32)CC1
**Q:** Sort (3 compounds) by IC50: min first. As an answer, provide the labels arranged in the order called for.
**A:** 3, 1, 2

----------
target: 6×HIS-tankyrase1 (1091-1325) (Homo sapiens (Human), UniProt O95271); assay: Tankyrase 1 biochemical assay (AlphaLisa, PARsylation); conditions: 400 nM NAD, 60 minutes at RT; read-out: TNKS1 IC50
Sequence (O95271 1091-1325): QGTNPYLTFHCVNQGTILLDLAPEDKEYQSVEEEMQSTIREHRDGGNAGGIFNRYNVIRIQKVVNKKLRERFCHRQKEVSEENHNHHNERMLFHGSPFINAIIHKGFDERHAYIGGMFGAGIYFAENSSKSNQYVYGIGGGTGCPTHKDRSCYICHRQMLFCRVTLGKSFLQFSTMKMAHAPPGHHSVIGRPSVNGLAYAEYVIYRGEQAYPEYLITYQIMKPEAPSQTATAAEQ
property.measured: IC50 (nM)

O=C(CCCc1nc2ccccc2c(=O)[nH]1)N[C@H]1CC[C@H](c2nnc(-c3cccc(F)c3)o2)CC1 [Example 31]
0.469
N#Cc1cccc(-c2nnc(C3CCN(C(=O)CCCc4nc5ccccc5c(=O)[nH]4)CC3)o2)c1 [Example 20]
11.3
O=C(CCSc1nc2ccccc2c(=O)[nH]1)N[C@H]1C[C@@H](c2nnc(-c3ccccc3)o2)C1 [Example 39]
0.405
O=C(CCCc1nc2ccccc2c(=O)[nH]1)N1CCC(c2nnc(-c3ccccc3)o2)CC1 [Example 42]
28.2
O=C(CCSCc1nc2ccccc2c(=O)[nH]1)N1CCC(c2nnc(-c3ccc(F)cc3)o2)CC1 [Example 93]
95.2

(A) Cn1c(=O)n(C2CCN(C(=O)CCCc3nc4ccccc4c(=O)[nH]3)CC2)c2ccc(Cl)cc21 [Example 45]
(B) COc1cccc(-c2nnc([C@H]3CC[C@H](NC(=O)CCSc4nc5ccccc5c(=O)[nH]4)CC3)o2)c1 [Example 120]
**Q:** Of the two listed items, A and B , which carries the larger IC50 figure? Field: selected label. Fill in the label of the entry you choose.
**A:** A

----------
molecular target: 6×HIS-tankyrase 2 (946-1162) (Homo sapiens (Human), UniProt Q9H2K2)
Sequence (Q9H2K2 946-1162): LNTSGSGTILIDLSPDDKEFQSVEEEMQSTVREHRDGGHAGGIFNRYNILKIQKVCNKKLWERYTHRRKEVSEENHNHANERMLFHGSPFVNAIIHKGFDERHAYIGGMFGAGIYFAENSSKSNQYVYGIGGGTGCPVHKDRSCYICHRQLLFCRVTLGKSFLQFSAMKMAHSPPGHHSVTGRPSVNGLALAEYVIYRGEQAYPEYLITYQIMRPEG
pIC50: −log10 of the molar value.
property.measured: pIC50

Here's what some known entries look like.
O=C(CCCc1nc2ccccc2c(=O)[nH]1)N[C@H]1CC[C@H](Oc2ccncc2)CC1
9.08
O=C(CCCc1nc2ccccc2c(=O)[nH]1)N[C@H]1CC[C@H](c2nnc(-c3ccc(Cl)cc3)o2)CC1
9.37
COc1ccc2[nH]c(=O)n(C3CCN(C(=O)CCCc4nc5ccccc5c(=O)[nH]4)CC3)c2c1
9.01

(A) O=C(CCCc1nc2ccccc2c(=O)[nH]1)N1CC=C(n2c(=O)[nH]c3ccccc32)CC1
(B) O=c1[nH]c(CCNC(=O)[C@H]2CC[C@H](c3nnc(-c4ccccc4)o3)CC2)nc2ccccc12
(C) O=C(CSc1nc2ccccc2c(=O)[nH]1)N[C@H]1CC[C@H](n2c(=O)[nH]c3ccc(Cl)cc32)CC1
**Q:** Sort (3 molecules) by pIC50: min first. As an answer, provide the labels arranged in the order called for.
**A:** B, A, C
(B: 7.65, A: 8.40, C: 9.34)
